assay: The compound was evaluated for binding affinity towards monoclonal antibody NC10.14 using competitive radioimmunoassay.
Quantity: Kd
The answer consists of two parts: a number and, after it, its unit.

Field request: Kd | item: `N#Cc1ccc(N/C(=N\CC(=O)O)NC(c2ccccc2)c2ccccc2)cc1`
18 nM

Reference for the values: ChEMBL document CHEMBL1130785
